Recorded values, source paper PMC9851200.

- Tested on: SH-SY5Y cells
- Measurement conditions: PKIS2 primary screening, DQ Red BSA spot count
Parameter threshold = 90. Response is MET when DQ Spot meets or exceeds it, else NOT MET.

Compound	Assigned label
FC(F)(F)c1ccccc1-c1cc(-c2c[nH]nc2-c2ccccn2)ccn1 [UNC10225184A]	MET
CN1CCN(Cc2ccc(NC(=O)Nc3ccc(N(C)c4ccnc(Nc5ccc(CS(C)(=O)=O)cc5)n4)cc3)cc2)CC1 [GW827654]	MET
Cc1cccc(-c2nc(Nc3ccncc3)c3sccc3n2)n1 [GW869641]	MET
c1ccc(-c2n[nH]cc2Nc2ccnc3ccccc23)nc1 [UNC10225048A]	NOT MET
CNc1nc(-c2ccc3c(N)n[nH]c3c2)cc(N2C[C@@H](C(=O)Nc3ccccc3)CC[C@H]2C)n1 [GSK2298859]	MET
c1ccc(Oc2ccc(Nc3ccnc4ccc(-c5ccccn5)cc34)cc2)cc1 [UNC10225215A]	NOT MET
N#Cc1ccc(CCNc2nccc(-c3cccc(CN4CCNCC4)c3)n2)cc1 [GSK2137462]	NOT MET

From here, focus on the item given below.
In: Check this compound for DQ Spot at or above 90: COC(=O)Nc1nc2ccc(Oc3ccc(NC(=O)Nc4cc(C(F)(F)F)ccc4F)cc3)cc2n1C [GW692089]
Out: MET

---

- Tested on: SH-SY5Y cells
- Assay details: AK (adenylate kinase) release ToxiLight cytotoxicity assay; note: reference of the scale not given here
- Measurement conditions: PKIS2 primary screening
Measured attribute: AK
Numbers only.

Would you please look over these solved cases?
Molecule	AK
Nc1ncc(-c2cn[nH]c2)c2scc(-c3ccc4c(c3)CCN4C(=O)Cc3ccccc3)c12 [UNC10225500A]	74.47
Cc1nnc(-c2ccc(C)c(-c3ccc(C(=O)O)cc3)c2)o1 [UNC10225501A]	95.30
COc1cc(Nc2nccc(N3CCC(NC(=O)c4cccc(NC(C)=O)c4)C3)n2)cc(OC)c1OC (stereo not shown) [GSK1379754]	115.02

// below: AK requested for another molecule
In: Tell me the measured AK of Cl.Cl.NCC(C(=O)Nc1cc(Br)c(-c2ccnc3[nH]ccc23)s1)c1ccccc1 (stereo not shown) [UNC10225027A] , please.
Out: 80.33

---

- Tested on: SH-SY5Y cells
- Measurement conditions: human, SH-SY5Y cells, 24 h, 1 µM
Quick rule for you: AK at 90 or higher means 1, lower means 0.

See these solved cases before continuing.
Compound	Assay target	Assigned label
O=C1NC(=O)C(c2ccc(Cl)cc2)=C1Nc1cccc(Cl)c1 [UNC10225464A]	SH-SY5Y cells	0
O=C(Nc1n[nH]c2nc(-c3ccc(O)cc3)ccc12)C1CC1 [SB-710363]	SH-SY5Y cells	1
Nc1n[nH]c2ncc(-c3ccccc3)cc12 [SB-517081]	SH-SY5Y cells	0

We now examine a further compound.
In: Hello, I need to know if O=C1NC(=O)C(N2CCc3ccccc32)=C1c1ccccc1Cl [UNC10225255A] has measured AK not below 90. Thanks!
Out: 0

---

- Test system: SH-SY5Y cells
- Assay details: Nuclear count from microscopy images (cellular growth and toxicity); note: reference of the scale not given here
- Measurement conditions: PKIS2 primary screening
Measured attribute: Nuclear Count
Numbers only.

Compound	Assay target	Nuclear Count
Cc1ccc2c(-c3ccnc(Nc4ccc(C(F)(F)F)cc4)n3)cnn2n1 [UNC10225224A]	SH-SY5Y cells	89.44
Cc1ccccc1CC(=O)N1CCc2cc(-c3cn(C)c4ncnc(N)c34)ccc21 [UNC10225254A]	SH-SY5Y cells	109.34
CSc1nn2c(=O)cc(N3CCOCC3)nc2n1Cc1cccc(C(F)(F)F)c1C [UNC10243881A]	SH-SY5Y cells	93.06
O=C(Nc1n[nH]c2nc(-c3ccco3)c(Br)cc12)c1ccc(CN2CCCC2)cc1	SH-SY5Y cells	100.71
Cn1cncc1-c1cc2c(Nc3ccc(OCc4ccccc4)cc3)ncnc2cn1 [UNC10225035A]	SH-SY5Y cells	109.40

Required: Nuclear Count, one value per compound below.
1. Cc1c(Cn2c(C)c(C)n3c(=O)cc(N4CCOCC4)nc23)cccc1C(F)(F)F [UNC10225225A]
2. CCn1c(-c2nonc2N)nc2cncc(CNC3CCNCC3)c21.Cl [UNC10225211A]
3. Nc1ncc(-c2ccc3nccc(-c4ccncc4)c3c2)cc1S(=O)(=O)N1CCCCC1 [UNC10225117A]
4. CCS(=O)(=O)c1ccc(OC)c(Nc2nccc(-c3c(-c4cccc(NC(=O)c5c(F)cccc5F)c4)nn4ncccc34)n2)c1 [UNC10225342A]
5. COc1cccc(NC(=O)Nc2ccc(C)c(-c3ccc(C(=O)Nc4ccncc4)cc3)c2)c1 [UNC10225200A]
6. Fc1cc(Cl)ccc1Nc1ccnc2cc(-c3ccc(CN4CCCCC4)o3)ccc12 [UNC10225220A]
7. CNc1nc(-c2ccc3c(N)n[nH]c3c2)cc(N2C[C@@H](C(=O)Nc3ccccc3)CC[C@H]2C)n1

Out:
[111.32, 84.35, 82.78, 104.33, 79.81, 76.92, 105.37]

---

Consider the following compounds; for each one, report its Nuclear Count.
- System: SH-SY5Y cells
- Measurement conditions: human, SH-SY5Y cells, 24 h, 1 µM
Numbers only.

Compound	Measured attribute	Result number
CN(C1=C(c2ccccc2)C(=O)NC1=O)c1ccccc1 [UNC10225087A]	Nuclear Count	105.86
O=C(Nc1n[nH]c2nc(-c3cccs3)c(Br)cc12)C1CC1	Nuclear Count	125.04
O=C1NC(=O)C(c2ccc(Cl)cc2)=C1Nc1ccc(O)cc1 [UNC10225090A]	Nuclear Count	99.00
O=C(Nc1n[nH]c2nc(-c3ccco3)c(Br)cc12)C1CCN(Cc2ccccc2)C1 (stereo not drawn)	Nuclear Count	103.32
COc1cccc(C2=C(Nc3cccc(Cl)c3)C(=O)NC2=O)c1 [UNC10225288A]	Nuclear Count	80.70

Record Nuclear Count per entry; entries follow.
1. Nc1n[nH]c2ncc(-c3ccccc3)cc12
2. CSc1ccc(NC2=C(c3ccc(Cl)cc3)C(=O)NC2=O)cc1 [UNC10225216A]
3. O=C1NC(=O)C(c2ccccc2)=C1Nc1cccc(O)c1 [UNC10225065A]

Out:
1: 74.04; 2: 155.73; 3: 88.09

In: Sample `O=C(Nc1n[nH]c2nc(-c3cccc(O)c3)ccc12)C1CC1` — what was its Nuclear Count?
Out: 107.31

---

- Tested on: endogenous TFE3
- Assay details: TFE3 nuclear translocation, immunocytochemistry high-content imaging
- Assay type: cell-based
- Measurement conditions: PKIS2 primary screening
Flag rule - TFE3 % less than 10% flags rule met; the remaining entries get rule not met.

In: Determine whether this compound shows TFE3 % lower than 10% (ties excluded): COc1cc2c(Nc3cccc(NC(=O)c4ccccc4)c3)ncnc2cc1OCCCN1CCOCC1 [UNC10225271A]
Out: rule not met

In: And what about the compound COc1cc2ncn(-c3cc(OCC4CCCCC4)c(C(N)=O)s3)c2cc1OC [UNC10225496A] ?
Out: rule met

In: Again, but for `CNC(=O)c1ccccc1Nc1nc(Nc2cccc(CS(C)(=O)=O)c2)ncc1C`
Out: rule not met

In: And the next one, Cc1ccccc1Cn1ccn2c(=O)cc(N3CCOCC3)nc12 [UNC10225355A] ?
Out: rule not met

In: // next record `O=C(Nc1ccc(Oc2ccc3nc(NC(=O)c4ccco4)[nH]c3c2)cc1)Nc1cc(C(F)(F)F)ccc1F`
Out: rule not met

In: Can you check Cc1cccc(-c2cc(-c3c[nH]nc3-c3ccccn3)ccn2)c1 [UNC10225499A] next?
Out: rule met

In: How about this compound: COc1cc(Nc2ccnc3ccc(C(F)(F)F)cc23)cc(OC)c1OC [UNC10225109A]
Out: rule met

In: Another compound to check: Nc1ncnc2[nH]c(-c3ccccc3)nc12 [UNC10243863A]
Out: rule not met

In: Subsequent entry: COc1cc2ncn(-c3cc(OCc4sccc4Cl)c(C(N)=O)s3)c2cc1OC [UNC10225153A]
Out: rule not met

In: Please answer likewise for COc1cccc(NC(=O)NC2CCN(c3ccnc(Nc4ccc(F)cc4)n3)C2)c1 (centres unmarked)
Out: rule not met

In: # iterate: COC(=O)c1cccc(NC(=O)NC2CCN(c3ccnc(Nc4ccc(OC)cc4)n3)C2)c1 (centres unmarked)
Out: rule not met

In: What do you get for `Cc1cccc(-c2nc(Nc3ccc4ncsc4c3)c3ccccc3n2)n1` ?
Out: rule not met

In: Try this compound next: O=C(O)C(F)(F)F.O=C(O)C(F)(F)F.O=c1[nH]ccc2nc(N[C@@H]3CCCNC3)nc(Nc3ccc(S(=O)(=O)N4CCOCC4)cc3)c12 [UNC10225269A]
Out: rule not met

In: Could you do the same for Cl.Cl.Cl.Fc1ccc(-c2ncn(C3CCNCC3)c2-c2ccnc(Nc3ccccc3)n2)cc1 [UNC10225420B] , please?
Out: rule not met
